From: ChEMBL document CHEMBL4680287

Examples of molecules with documented Activity follow.
# Test system: Candida albicans
# Measurement protocol: Antifungal activity against Candida albicans MY1055 infected in DBA/2 mouse model of disseminated candidiasis assessed as reduction in fungal burden in kidney by measuring log change in colony forming units at 6.25 mg/kg, po bid for 7 days by TOKA
# Format: functional
# Condition label: time 7 day
Readout label: Activity (deltalog10CFU)

| Chemical smiles | Test value |
| --- | --- |
| CN[C@@](C)(CO[C@H]1[C@H](n2ncnc2-c2ccncc2)C[C@@]23COC[C@]1(C)[C@@H]2CC[C@H]1C3=CC[C@@]2(C)[C@H](C(=O)O)[C@@](C)([C@H](C)C(C)C)CC[C@]12C)C(C)C | -0.9 |
| CC(C)[C@@H](C)[C@@]1(C)CC[C@]2(C)[C@H]3CC[C@@H]4[C@@]5(COC[C@@]4(C)[C@@H](OC[C@](C)(N)C(C)C)[C@H](n4ncnc4-c4ccccc4)C5)C3=CC[C@@]2(C)[C@@H]1C(=O)O | -0.2 |
| CC(C)[C@@H](C)[C@@]1(C)CC[C@]2(C)[C@H]3CC[C@@H]4[C@@]5(COC[C@@]4(C)[C@@H](OC[C@](C)(N)C(C)C)[C@H](n4ncnc4-c4ccnnc4)C5)C3=CC[C@@]2(C)[C@@H]1C(=O)O | -1.2 |
| CC(C)[C@@H](C)[C@@]1(C)CC[C@]2(C)[C@H]3CC[C@@H]4[C@@]5(COC[C@@]4(C)[C@@H](OCC4(N)CCOCC4)[C@H](n4ncnc4-c4ccncc4)C5)C3=CC[C@@]2(C)[C@@H]1C(=O)O | -1.4 |
